measured-on: T1, murine CD22 protein (ACROBiosystems, SI2-M52Ha) (murine, UniProt P35329 22-708)
T1 construct: extracellular domain; also called murine CD22-ECD; murine CD22-ECD-His
T1 sequence (looked up): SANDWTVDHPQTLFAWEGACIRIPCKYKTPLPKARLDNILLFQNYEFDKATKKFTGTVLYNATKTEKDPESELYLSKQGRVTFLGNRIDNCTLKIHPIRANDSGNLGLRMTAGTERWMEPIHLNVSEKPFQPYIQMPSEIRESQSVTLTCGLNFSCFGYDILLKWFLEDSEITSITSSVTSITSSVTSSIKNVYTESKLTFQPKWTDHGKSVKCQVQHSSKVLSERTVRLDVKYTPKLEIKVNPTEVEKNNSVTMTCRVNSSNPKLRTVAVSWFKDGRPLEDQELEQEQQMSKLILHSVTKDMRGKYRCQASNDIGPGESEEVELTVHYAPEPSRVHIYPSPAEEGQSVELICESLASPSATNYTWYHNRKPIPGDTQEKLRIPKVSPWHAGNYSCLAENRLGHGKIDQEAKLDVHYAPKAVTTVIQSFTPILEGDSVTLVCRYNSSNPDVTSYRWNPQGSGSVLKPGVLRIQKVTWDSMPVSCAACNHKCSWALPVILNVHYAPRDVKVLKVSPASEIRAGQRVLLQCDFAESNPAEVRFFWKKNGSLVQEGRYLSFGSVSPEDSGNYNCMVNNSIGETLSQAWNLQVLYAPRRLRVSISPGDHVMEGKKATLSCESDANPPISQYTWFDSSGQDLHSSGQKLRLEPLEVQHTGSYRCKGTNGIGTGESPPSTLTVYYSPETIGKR
experimental-details: ELISA, coated murine CD22, 0.001 nM Ab
Kindly supply the reported OD450 values for the records listed here.
Give bare numbers, in OD450.

Incoming: Fill in OD450 for record F1.224.1 human-murine chimeric antibody (antibody, human IgG1, kappa, V domains shown, Chimeric, human IgG1 / kappa; VL tied by name) VH: EVLLHQSGPELVKPGASVKISCKASGYTFTDFNMDWVRQRHGQSLEWIGDVNPNNGGTIYNQKFKGKATLTVDKSSSTVYMDLRSLTSDDTAVYYCVRLGTSDYGEAWFISWGQGTVVTVSA VL: DIVLTQSPASLAVSLGQRATISCRASQSVSTPRYSFMHWYQQKPGQPPKLLIKYASNLESGFPARFTGSGSGTDFTLNIHPVEEEDTAAYYCQQSWAIPWTFGGGTKLEIKR
Outgoing: 0.05

Shifting focus to the binder that follows.
Incoming: Fill in OD450 for record F2.205.9 human-murine chimeric antibody (antibody, human IgG1, lambda, V domains shown, Chimeric, human IgG1 / lambda; VL tied by name) VH: QVTLKESGPGILQPSQTLSLTCSFSGFSLSTSGMGVGWIRQPSGKGLEWLAHIWWDDDEYYNPALKSRLTISKDTSKNQVFLKIANVDTADTATYYCARISIPYGYYDWFFDVWGTGTTVTVSA VL: QAVVTQESALTTSPGETVTLTCRSSTGAVTTRNYANWVQEKPDHLFTGLIGGTNNRAPGVPARFSGSLIGDKAALTITGAQTEDEAIYFCALWYSNHFIFGSGTKVTVLG
Outgoing: 0.05
